# run_description: yeast display, Sf9 membrane polyspecificity reagent, FACS + sequencing; frameworks hold sequencing errors
outcome_measure: polyreactivity (PSR sort gate)

residue_sequence=QVQLVESGGGLVQAGGSLRLSCAASGRTFTWYTMGCYIQAPGKERELVAAISGSGSRTYYADSVKGRFTISRDNAKNTVYLQMNSLKPEDTAVYYCAKDKSARYRYDYWGQGTQVTVSS experimental_value="low polyreactivity"
residue_sequence=QVQLVESGGGLVQAGGSLRLSCAASGRTFEWYALGWYRQAPGKERELVAAIRSGGGTNYADSVKGRFTISPDNAKNTVYLQMNSLKPEDTAVYYCAKEWAGGLYDYWGQGTQVTVTS experimental_value="low polyreactivity"
residue_sequence=QVQLVESGGGLVQAGGSLRLSCAASGSILWYYAMGWYRQAPGKERELVATITSGGSTYYADSVKGRFTMSRDNAKNTVYLQMNILKTEDTAVYYCNADLAVDEYVYWGQGTQVTVSS experimental_value="low polyreactivity"
residue_sequence=QVQLVESGGGLVQAGGSLRLSCAASAYTFYAMGWYRQAPGKERELVAAITYRGARTYYADSVKRRFTISRDNEKNTVYLQMNSLKPEYTAVYYCNADYWGQGTQVTVSS experimental_value="low polyreactivity"

----------
# run_description: yeast display, Sf9 membrane polyspecificity reagent, FACS + sequencing; frameworks hold sequencing errors
outcome_measure: polyreactivity (PSR sort gate)

residue_sequence=QVQLVESGGGLVQAGGSLRLSCAASGIIFTYAMGWYRPAPGKERELVAAIDWRGGRTYYADSVKGRFTISRDNAKNTVYLQMNSLKPEDTSVYYCGARLPGGTYYWGQGTQVTVSS outcome_measure="polyreactivity (PSR sort gate)" experimental_value="high polyreactivity"
residue_sequence=QVQLVESGGGLVQAGGSLRLSCAASGSTFSYNAMGWYRQAPGKEREFVAAITTSGVRTYYADSVKGRFTISRDNAKNTVYLQMNSLKPEDTAVYYCAARANYIFYGMDYWGQGTQVSVSS outcome_measure="polyreactivity (PSR sort gate)" experimental_value="high polyreactivity"

----------
# run_description: yeast display, Sf9 membrane polyspecificity reagent, FACS + sequencing; frameworks hold sequencing errors
outcome_measure: polyreactivity (PSR sort gate)

residue_sequence=QVQLVESGGGLVQAGGSLRLICAASGSTFGRYAMGWYRQAPGKERELVARISWGGGSTYYADSVKGRFTISRDNAKNTVYLQMYSLKPEDTAVYYCATRVYRSAVSYDYWGQGTQVTVSS experimental_value="high polyreactivity"
residue_sequence=QVQLVESGGGLVQAGGSLRLSCAASGRTFAGYAMGWYRQAPGKERELVAGIRRSGDSTYYADSVKGRFTISRDNAKNTVYLQMNSLKPEDTAVYYCAAAPISKYGPYRGTGYRMGYWGQGTQVTVSS experimental_value="high polyreactivity"

----------
# run_description: yeast display, Sf9 membrane polyspecificity reagent, FACS + sequencing; frameworks hold sequencing errors
outcome_measure: polyreactivity (PSR sort gate)

residue_sequence=QVQLVESGGGLVQAGGSLRLSCAASGSTLNSYVMGWYRQAPGKERELVATIRSGSSTNYADSVNGRFTISRDNAKNTVYLQMNSLKPEDTAVYYCAADAYSLCYDSWGQGTQVTVSS outcome_measure="polyreactivity (PSR sort gate)" experimental_value="low polyreactivity"
residue_sequence=QVQLVESGGGLVQAGGSLRLSCAASGSTFYFNAMGWYIQAPGKERELVADINYSGTSTYYADSVKGRFTISRDNAKNTVYLQMNSLKPEDTAVYYCAKSLPSSNTSTSYDYWGQGTQVTVSS outcome_measure="polyreactivity (PSR sort gate)" experimental_value="low polyreactivity"
residue_sequence=QVQLVESGGGLVQAGGSLLLSCAASGLTFRRYNMGWYRQAPGKERELVAAISYSGGSTYYADSVKGRFTISRDNAKNTVYLQMNSLKPEDTAVYYCNDRYARVKQYGYWGQGTQVTVSS outcome_measure="polyreactivity (PSR sort gate)" experimental_value="low polyreactivity"
residue_sequence=QVQLVESGGGLVQAGGSLRLSCAASGIILGSNAKGWYRQAPGKERELVAGITSGGGTYYADSVKGRFTISRDNAKKTVYLQMNSLKPEDTAVYYCAKLYFHYYRYGYWGQGTQVTVSS outcome_measure="polyreactivity (PSR sort gate)" experimental_value="low polyreactivity"
residue_sequence=QDQLVESGGGLVQAGGSLRLSCAASGSIFGWYAMGWYRQAPGKERELVAAITWSGGSTYYADSVKGRFTISRDNAKNTVYLQMNSRKPEDTAVYYCAATYYGYVGRYDYWGQGTQVTVSS outcome_measure="polyreactivity (PSR sort gate)" experimental_value="high polyreactivity"
residue_sequence=QVQLVESGGGLVQAGGSLRLSCAASGFTIWPYAMGWYRQAPGKERELVAGITRNGGSTYYADSVKGRFTISRDIAKNTVYLQMNSLKPEDTAVYYCNTKYAVEFDYWGQGTQVTVSS outcome_measure="polyreactivity (PSR sort gate)" experimental_value="low polyreactivity"
residue_sequence=QVQLVESGGGLVQAGGSLRLSCAASGSIFHRYAMGWYRQAPGKERELVAAINRGGSSYADSVKGRFTISLDNAKNTVYLQMNRLNPEDTAVYYCATRNIGRSTGPFYWGYYYWGQGTQVTVSS outcome_measure="polyreactivity (PSR sort gate)" experimental_value="high polyreactivity"
residue_sequence=QVQLVESGGGLVQAGGSLRLSCAASGSIFITYAMGWYRQAPGKERELVAAIRDSGDRTYYADSVKGRFTISRDNAKNTVYLQMNSLKPEDTAVYYCAKRAWGSPYGYWGQGTQVTVSS outcome_measure="polyreactivity (PSR sort gate)" experimental_value="low polyreactivity"
residue_sequence=QVQLVESGGGLVQAGGSLRLSCAASGSTFYTNAMGWYRQAPGKERELVAAINRSGGRTYYADSVKGRFTISRDNAKNTVYLQMISLKPEDTAVYYCAARYPLRISTDTARDYYWGQGTQVTVSS outcome_measure="polyreactivity (PSR sort gate)" experimental_value="low polyreactivity"
residue_sequence=QVQLVESGGGLVQAGGILRLSCASSGRIFGVNAMGWYRQATGKERELVATISSGGSTYYADSVKGRFTISRDNAKNTVYLQLNSLKPEDTAVYYCAADTRRYYLARYRTDYWGQGTQVTVSS outcome_measure="polyreactivity (PSR sort gate)" experimental_value="high polyreactivity"
residue_sequence=QFQLVESGGGLVQAGGSLRLSCAASGSTFVPNTMGWYRQAPGIERELVAAITYSGGSTYYADSVKGRFTISRDNAKNTVYLQMHSLKPEDTAVYYCAAEGTTWYYDMDYWGQGTQVTVSS outcome_measure="polyreactivity (PSR sort gate)" experimental_value="low polyreactivity"

----------
# run_description: yeast display, Sf9 membrane polyspecificity reagent, FACS + sequencing; frameworks hold sequencing errors
outcome_measure: polyreactivity (PSR sort gate)

residue_sequence=QVQLVESGGGLVQAGGSLRLSCAASGFNFDYNAMGWYRQAPGKERELVAAISWSGGRTYYADSVKGRFTISRDNAKNTVYLQMNSLKPEDTAVYYCAARARNYPPYNYWGQGTQVTVSS experimental_value="high polyreactivity"
residue_sequence=QGQLVESGGGLVQAGGSLRLSCAASGRIVGPNTMGWSRQAPGKERELVAAISSGGGTYYADSVKGRFTISRDNAKNTVYLQMNSLKPEDTAVYYCAADYTTLKLYYWFDYWGQGTHVTVSS experimental_value="low polyreactivity"
residue_sequence=QVQLVESGGGLVQAGRSLRLSFADSGVIVTSNAMGWYRQAPGKEREFVADITSSDSTYYADSVKGRFTISRDNAKNTVYLQMNSLKPEDTAVYYCAARGTTVRAYGYGFGYWGQGTQVTVSS experimental_value="low polyreactivity"
residue_sequence=QVQLVESGGGLVQAGGSLRLSCAASGSIFDFYAMGRYRQAPGKERELVAAISYSGSSTYYADSVKGRFTISRDNAKNTVYLQMNSLKPEDTAVDYCATDYPGGYVYYSRFDYWGQGTQVTVSS experimental_value="low polyreactivity"
residue_sequence=QYQLVESGGGLVQAGGSLRLSCAASGSTFRANTMGWYRQAPGKERELVSTITRGTITKYADSVKGRFTISRDNAKNPVYLQMNSLKAEDTAVFDCAVDQAYVRRNWGYTGYVTYDHWGQGTQVTVSS experimental_value="high polyreactivity"
residue_sequence=QVQLVESGGGLVHAGGSLRLSCAASGIIFVLHAMGWYRQAPGQERELVASISGIGGSTYYADSEKGRFTISRDNAKNTVYLQMNSLKPEDTAVYYCAARGWLSRYGYWGHGTQVTVSS experimental_value="high polyreactivity"
residue_sequence=QVQLVESGGGLVQAGGSLRLSCAASGRTFVSNVMGWYRQAPGKERELVAAINWSGDSTYYADSVKGRFTISRDNAKNTVYLQMNSLKPEDTAVYYCARRNPLGGNEHDYWGQGTQVTVSS experimental_value="low polyreactivity"
residue_sequence=QVQLVESGGGLVQAGGSLRLSCAASGFTLFFHAMGWYRQAPGKERELVATISERGDSTYYADSVKGRFTISRDNAKNTVYLQMNSLKPEDTAVYYCAAVGTYSSYGYWGQGTQVTVSS experimental_value="high polyreactivity"
residue_sequence=QVQLVESGGGLVQAGGSLRLSCAASGRIFYFNAMGWYRQAPGKERELVAAMSWTGGSTYYADSVKGRFTISRDTAKNTVYLQMNSLKPEDTAVYYCAADRALSISLYPIASFDYWGQGTQVTVSS experimental_value="low polyreactivity"
residue_sequence=QVQLVQSGGGLVQAGGSLRLRCAASGRIFTPYAMGWNRQAPGQDRELVAAISASGTRTYYADSVKGRFTISRDNAKNTVYLQMKSLQAEDSAVYSCAAYKSGEPSDYWGQGTQVTVSS experimental_value="high polyreactivity"
residue_sequence=QVQLVDSGGGLVQAGGSLRLSCAASGRIFLYNGMGWYRQAPGKERELVAGIITGGNTNYADSVKGRFTISRDNAKNTVYLQMNSLKPEDTAVYYCAAEVIVYGWSPDYDYWGQGTQVTLSS experimental_value="low polyreactivity"
